Source listed as PubChem BioAssay (NCI).

Would you kindly list TGI for each of these compounds?
# Test system: HCC-2998 colon
# Protocol text: NCI tumour cell line growth inhibition, 48 h
Numbers only, in µM.

Consider the worked cases shown below.
O=C1NCCS(=O)(=O)/C1=C\C=C\c1cccc(C(F)(F)F)c1
3.72
Clc1nc(Cl)c2ncn(Cc3ccc(Cn4cnc5c(Cl)nc(Cl)nc54)cc3)c2n1
24

Give the reported TGI for this compound. CC(CCCOC(c1ccccc1)(c1ccccc1)c1ccccc1)OC(=O)Nc1ccccc1 (stereo not given)
27.3

====

# Test system: K-562 leukemia
# Protocol text: NCI tumour cell line growth inhibition, 48 h
Quantity measured: TGI

Consider the worked cases shown below.
CCCCCCC(/C=N/O)C(C)(O)CCC (configuration not stated)
> 100 µM
COP(=O)(OC)/C(=C\c1cn(C(c2ccccc2)(c2ccccc2)c2ccccc2)cn1)NC(C)=O
> 100 µM

// input: 8 molecules below; output: TGI for each
1. COc1cccc(-c2nc(-c3cnccn3)n(COCCO)n2)c1
2. COc1cc(C(=O)Nc2cc(C(N)=O)cc(OC)c2OC)cc(NC(=O)/C=C/c2ccccc2)c1OC
3. O=c1[nH]c2c(c(=O)[nH]1)SSC2
4. COCCOC(=O)C(C)=[N+]=[N-]
5. Nc1nc(N)c2nc(CNc3ccc(C(=O)NC(CCCCNC(=O)c4ccccc4C(=O)O)C(=O)O)cc3)cnc2n1 (configuration not stated)
6. CSc1cccc(NC(=O)OC2CCCCCCCCCCC2)c1
7. COC(=O)[C@@H](C)C[C@H](Cc1ccccc1)NC(=O)c1csc([C@@H](C[C@H](C(C)C)N(C)C(=O)[C@H](C)NC(=O)[C@H]2CCCCN2C)OC(C)=O)n1
8. S=c1[nH]nc(NNc2ccccc2)n1Nc1ccccc1

["> 100 µM", "> 100 µM", "5.52 µM", "> 100 µM", "> 100 µM", "93.7 µM", "> 25 µM", "> 100 µM"]

// input: 2 molecules below; output: TGI for each
1. CC(C)C(NC(=O)C(Cc1ccccc1)NC(=O)[C@H]1CCC[C@H]1NC(=O)C(N)Cc1ccc(O)cc1)C(N)=O (some centres not stated)
2. COc1cc(Cl)cc(-c2nn(-c3cccc(NC(=O)Nc4ccc(Cl)c(C(F)(F)F)c4)c3)cc2-c2ccncc2)c1

1. > 100 µM
2. 10.1 µM
